- Test system: MALME-3M melanoma
- experiment: NCI-60 one-dose screen, 48 h (100 = growth as untreated, 0 = no growth, -100 = all killed)
- conditionLabel: 10 µM unless noted
- Experimental: Cells are grown in 96 well plates and exposed to the test compound for 48 hours. Compounds are tested at a single concentration, which is 10^-5 M for most compounds. The reported endpoint is percent growth (GI% or GIPRCNT), where numbers from 0 - 100% represent growth inhibition, and numbers from -100% - 0 represent cell death. For example, a value of 40 represents 60% growth inhibition. A value of 0 means no net growth occurred over the course of the experiment. […]
This is part of a sample that, as a whole, favours compounds with a hit. Of some 83,000 tested, about 20% had one in any assay. The source made the active and inactive calls. Rule for the calls: active = growth percent below 10; inactive = the rest.
observedProperty: growth

Solved entries (count: 4):
{"molecule": "CS(=O)(=O)c1ccc(-c2nc3cc(Cl)ccc3n2CC(=O)N/N=C/c2ccc(Cl)cc2)cc1", "measurement": "46.6% (inactive)"}
{"molecule": "CC(C)(C)Nc1c(-c2c3ccccc3cc3ccccc23)nc2ccccn12", "measurement": "80.6% (inactive)"}
{"molecule": "CCOC(=O)c1nnn(C(Cc2ccccc2Cl)C(=O)OCC)c1C (stereo not given)", "measurement": "117% (inactive)"}
{"molecule": "O=C(Nc1ccccn1)[C@H](O)[C@@H](O)C(=O)N1CCOCC1", "measurement": "114% (inactive)"}

Let's switch to this molecule now.
Which measured growth value corresponds to COc1cccc(-c2cnco2)c1OCc1c(C)c(COc2c(OC)cccc2-c2cnco2)c(C)c(COc2c(OC)cccc2-c2cnco2)c1C ? 43.5% (inactive)
